Below is a list of entries, each paired with its recorded log10 OD450 value.
TARGET_DESC: T1, monkey CD22 protein (ACROBiosystems, catalog number SI2-R52Ha) (monkey, UniProt F6W485 20-688)
T1 construct: commercial protein; also called monkey CD22-ECD; monkey CD22-ECD-His
T1 sequence: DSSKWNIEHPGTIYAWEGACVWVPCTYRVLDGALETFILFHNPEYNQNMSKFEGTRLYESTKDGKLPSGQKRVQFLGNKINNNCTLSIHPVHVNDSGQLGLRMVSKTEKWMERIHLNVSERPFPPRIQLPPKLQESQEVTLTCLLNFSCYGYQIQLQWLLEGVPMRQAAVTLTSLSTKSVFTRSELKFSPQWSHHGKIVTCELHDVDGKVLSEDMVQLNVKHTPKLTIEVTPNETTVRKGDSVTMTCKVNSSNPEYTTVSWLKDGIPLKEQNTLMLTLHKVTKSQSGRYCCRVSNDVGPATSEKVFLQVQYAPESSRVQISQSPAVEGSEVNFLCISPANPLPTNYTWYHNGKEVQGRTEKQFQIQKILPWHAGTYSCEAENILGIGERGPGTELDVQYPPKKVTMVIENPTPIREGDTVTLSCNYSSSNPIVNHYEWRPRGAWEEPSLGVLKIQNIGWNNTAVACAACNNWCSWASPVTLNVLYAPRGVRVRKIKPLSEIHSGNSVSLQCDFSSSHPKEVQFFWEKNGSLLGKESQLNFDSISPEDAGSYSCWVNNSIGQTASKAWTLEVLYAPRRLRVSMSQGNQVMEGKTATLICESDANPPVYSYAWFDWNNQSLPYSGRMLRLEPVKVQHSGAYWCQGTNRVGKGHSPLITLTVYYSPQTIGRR
ASSAY_EXPLANATION: ELISA, coated monkey CD22 protein, antibody 0.1 nM
Hi team, quick reminder: these entries are log10 of OD450 (OD450).

Below: 4 binders and their reported log10 OD450.
1. F1.200.11 (antibody, human IgG1, kappa, V domains shown, human-murine chimeric IgG1 kappa) VH: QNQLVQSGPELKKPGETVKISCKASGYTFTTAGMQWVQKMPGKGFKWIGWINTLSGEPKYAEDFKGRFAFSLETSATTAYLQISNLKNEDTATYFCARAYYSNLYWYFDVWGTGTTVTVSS VL: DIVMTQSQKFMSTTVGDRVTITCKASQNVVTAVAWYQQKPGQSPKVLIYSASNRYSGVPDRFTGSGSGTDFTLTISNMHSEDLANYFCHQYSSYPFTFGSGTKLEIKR :: -0.21
2. F1.17.1 (antibody, human IgG1, kappa, V domains shown, human-murine chimeric IgG1 kappa) VH: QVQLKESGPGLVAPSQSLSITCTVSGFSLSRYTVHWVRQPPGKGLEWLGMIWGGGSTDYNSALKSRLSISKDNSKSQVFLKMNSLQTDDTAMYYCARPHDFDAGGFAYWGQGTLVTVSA VL: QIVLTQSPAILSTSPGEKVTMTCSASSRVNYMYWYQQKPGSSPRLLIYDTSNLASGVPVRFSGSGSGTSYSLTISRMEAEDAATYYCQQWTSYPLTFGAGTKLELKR :: 0.30
3. F1.267.9 (antibody, human IgG1, kappa, V domains shown, human-murine chimeric IgG1 kappa; VL name legible) VH: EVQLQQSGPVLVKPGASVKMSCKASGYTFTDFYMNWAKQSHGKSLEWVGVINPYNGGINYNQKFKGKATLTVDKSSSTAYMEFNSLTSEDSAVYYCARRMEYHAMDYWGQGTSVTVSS VL: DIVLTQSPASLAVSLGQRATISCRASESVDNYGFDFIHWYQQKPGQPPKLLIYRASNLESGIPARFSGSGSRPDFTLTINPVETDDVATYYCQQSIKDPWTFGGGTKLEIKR :: 0.03
4. F2.121.9 (antibody, human IgG1, lambda, V domains shown, human-murine chimeric IgG1 lambda) VH: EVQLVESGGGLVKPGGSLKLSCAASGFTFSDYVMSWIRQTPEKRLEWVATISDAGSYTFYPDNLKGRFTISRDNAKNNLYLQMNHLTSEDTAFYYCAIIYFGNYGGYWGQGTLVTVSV VL: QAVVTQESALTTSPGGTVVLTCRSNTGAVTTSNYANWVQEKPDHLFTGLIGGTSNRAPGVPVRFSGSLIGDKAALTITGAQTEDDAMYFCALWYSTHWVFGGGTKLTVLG :: -0.47

Turning now to a further record.
The measured log10 OD450 associated with F1.257.3 (antibody, human IgG1, kappa, V domains shown, human-murine chimeric IgG1 kappa; VL name legible) VH: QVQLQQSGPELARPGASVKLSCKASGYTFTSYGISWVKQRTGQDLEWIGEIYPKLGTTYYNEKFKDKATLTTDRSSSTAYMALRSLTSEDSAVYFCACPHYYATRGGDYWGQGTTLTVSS VL: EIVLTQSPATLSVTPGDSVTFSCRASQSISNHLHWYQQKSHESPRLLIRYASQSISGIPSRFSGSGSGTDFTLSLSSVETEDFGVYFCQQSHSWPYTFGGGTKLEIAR reads -1.22
